# systemName: Human & mouse EphA3 (Human & mouse) (UniProt P29320)
# Sequence (P29320 21-541): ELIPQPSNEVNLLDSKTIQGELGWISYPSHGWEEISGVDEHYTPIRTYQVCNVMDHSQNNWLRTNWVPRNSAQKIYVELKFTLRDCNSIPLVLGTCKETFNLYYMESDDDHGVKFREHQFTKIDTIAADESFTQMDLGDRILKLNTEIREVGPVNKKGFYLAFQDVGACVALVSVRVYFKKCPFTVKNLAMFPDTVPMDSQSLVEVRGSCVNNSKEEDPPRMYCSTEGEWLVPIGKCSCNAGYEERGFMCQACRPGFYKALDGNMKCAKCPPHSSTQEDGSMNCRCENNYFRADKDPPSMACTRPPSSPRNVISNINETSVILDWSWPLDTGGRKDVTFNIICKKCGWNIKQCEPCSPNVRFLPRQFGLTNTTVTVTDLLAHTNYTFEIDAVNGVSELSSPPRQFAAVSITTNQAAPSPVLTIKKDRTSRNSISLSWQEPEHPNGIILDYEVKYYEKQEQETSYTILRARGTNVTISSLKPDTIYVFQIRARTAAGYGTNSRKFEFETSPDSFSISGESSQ
# assayName: FP direct binding, selectivity
Numbered stars: 1 amine (or outer) side, 2 acyl side, 3 side chain; on linkers, the order of the positions; unused ones are H or OH. Bridge positions count the residues as written; N and C are the ends. Square brackets hold non-standard residues; d marks the D form. Ends that are not written are not given here. 1Nal = N[C@@H](Cc1cccc2ccccc12)C(=O)O; TBMB = c1c(C[*:1])cc(C[*:3])cc1C[*:2]; Gly(cPent) = N[C@H](C(=O)O)C1CCCC1; hArg = N=C(N)NCCCC[C@H](N)C(=O)O; Tle = CC(C)(C)[C@H](N)C(=O)O; AF488 = AlexaFluor488 label; Aib = CC(C)(N)C(=O)O; βAla = NCCC(=O)O; Sar = CNCC(=O)O
recordedEndpoint: pKd
The read-out pKd is expressed as -log10 of concentration in moles per litre.

INSERT INTO assay_data (binder, readoutvalue) VALUES
  ('{AF488-βAla}-[Sar][Sar][Sar][Sar][Sar][Sar][Sar][Sar][Sar][Sar]H[dD][Gly(cPent)]PC[Aib][1Nal]G[Aib]F[1Nal]CP[Tle]NR[Aib][dD]C (linker 15-22-29 via TBMB) [Compound 146]', 5.14),
  ('{AF488-βAla}-[Sar][Sar][Sar][Sar][Sar][Sar][Sar][Sar][Sar][Sar]H[dD]VPCP[1Nal]G[Aib]F[1Nal]CP[Tle]NR[Aib][dD]C (linker 15-22-29 via TBMB) [Compound 145]', 6.89),
  ('{AF488-βAla}-[Sar][Sar][Sar][Sar][Sar][Sar][Sar][Sar][Sar][Sar]H[dD]VPC[Aib][1Nal]G[Aib]F[1Nal]CP[Tle]N[hArg]P[dD]C (linker 15-22-29 via TBMB) [Compound 140]', 5.43);

Value of measured pKd for the entry {AF488-βAla}-[Sar][Sar][Sar][Sar][Sar][Sar][Sar][Sar][Sar][Sar]H[dD]VPCP[1Nal]G[Aib]F[1Nal]CP[Tle]NR[Aib]GC (linker 15-22-29 via TBMB) [Compound 144] : 6.78

Value of measured pKd for the entry {AF488-βAla}-[Sar][Sar][Sar][Sar][Sar][Sar][Sar][Sar][Sar][Sar]H[dD][Gly(cPent)]PCP[1Nal]G[Aib]F[1Nal]CP[Tle]N[hArg]P[dD]C (linker 15-22-29 via TBMB) [Compound 147] : 7.08

The reported numbers originate from patent US20200338203A1.
